# testSystem: Apoptosis regulator Bcl-2 (Homo sapiens)
# Sequence (P10415 whole entry): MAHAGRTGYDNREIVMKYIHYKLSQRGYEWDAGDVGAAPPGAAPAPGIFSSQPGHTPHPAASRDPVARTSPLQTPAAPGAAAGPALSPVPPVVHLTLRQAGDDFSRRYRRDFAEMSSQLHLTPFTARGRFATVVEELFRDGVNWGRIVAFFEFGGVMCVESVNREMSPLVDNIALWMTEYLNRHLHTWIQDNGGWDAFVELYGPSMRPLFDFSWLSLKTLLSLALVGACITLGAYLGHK
assayReadout: Ki (µM)
API: value field is a number in µM; no unit string.

Need Ki, item `O=C1CC[C@H](O)c2cccc(O)c21`
475

These entries and their values trace back to ChEMBL document CHEMBL3351418.
